Measured values drawn from patent US12043670B2 for this set.

procedure summary: Chemical stability in buffer pH 5.5
Assay type: physicochemical
measurement conditions: Mcilvane (Citrate-Phosphate) buffer pH 5.5, 37° C., read-out: Stability %, Mean, t1/2 pH 5.5 (converted)
quantity: half-life at 20 μM (h)
The answer is to be given in h; state only the numeric part.

Query :: Need half-life at 20 μM, item CC[C@H](O)[C@@H](C)[C@H]1O[C@@H]1C[C@@](C)(O)/C=C/C=C(\C)[C@H]1OC(=O)C[C@H](O)CC[C@@](C)(O)[C@@H](OC(=O)N2CCNCC2)/C=C/[C@@H]1C [D1]
Result :: 24

====

# reported RminAve; entries follow
Test system: AMO-1 cells
procedure summary: 6-day CellTiter-Glo cell viability, AMO-1
Type: cell-based, human
measurement conditions: AMO1 cells, 6 days; negative = cell death vs T0
Where a SMILES comes first, the peptide text is derived from it. [ ]: non-standard residue; d: D form. Dolaproine = CO[C@@H]([C@@H]1CCCN1)[C@@H](C)C(=O)O; Dil = CC[C@H](C)[C@H](NC)[C@@H](CC(=O)O)OC; NMeV = CN[C@H](C(=O)O)C(C)C
The answer is to be given in %; state only the numeric part.

Example entries begin here.
# compound, value observed
data = [
    ("CC[C@H](O)[C@@H](C)[C@H]1O[C@@H]1C[C@@](C)(O)/C=C/C=C(\\C)[C@H]1OC(=O)C[C@H](O)CC[C@@](C)(O)[C@@H](OC(=O)N2CCN(C3CCCCCC3)CC2)/C=C/[C@@H]1C [E7107 (D11)]", "−96.8372"),
    ("N.N.[Cl][Pt][Cl] [cisplatin]", "−99.8648"),
    ("CC[C@H](O)[C@@H](C)[C@H]1O[C@@H]1C[C@@](C)(O)/C=C/C=C(\\C)[C@H]1OC(=O)C[C@H](O)CC[C@@](C)(O)[C@@H](OC(=O)N2CCNCC2)/C=C/[C@@H]1C [D1]", "−99.4709"),
]

Query :: Need RminAve, item CC[C@H](C)[C@@H]([C@@H](CC(=O)N1CCC[C@H]1[C@H](OC)[C@@H](C)C(=O)N[C@@H](Cc1ccccc1)C(=O)O)OC)N(C)C(=O)[C@@H](NC(=O)[C@@H](NC)C(C)C)C(C)C [MMAF] (H-[NMeV]V[Dil][Dolaproine]F-OH)
Result :: −99.5356
